Here the recorded metabolised is given for each entry.
assay: Drug metabolism in human liver microsomes; type: ADME, Microsome; conditions: read-out: Drug metabolism; also: time not given here
readoutKind: metabolised

• O=c1cc(N2CCOCC2)nc(Cc2nc3ccc(F)cc3[nH]2)[nH]1 = 69%
• O=c1cc(N2CCOCC2)nc(Cc2nc3cc(Br)ccc3[nH]2)[nH]1 = 75%
• O=c1cc(N2CCOCC2)nc(Cc2nc3ccccc3o2)[nH]1 = 41%
• O=c1cc(N2CCOCC2)nc(Cc2nc3c(-c4ccccc4)cccc3[nH]2)[nH]1 = 78%

* * *

target: Phosphatidylinositol 4,5-bisphosphate 3-kinase catalytic subunit delta isoform (Homo sapiens); assay: Inhibition of poly-His tagged human PI3Kdelta expressed in baculovirus infected insect sf9 cells coexpressing p85alpha using PI(4,5)P2 as substrate preincubated with compound for 15 mins measured after 10 mins by HTRF assay
readoutKind: IC50 (µM)

- Cc1cccc2oc(Cc3nc(N4CCOCC4)cc(=O)[nH]3)nc12: 2.75
- O=c1cc(N2CCOCC2)nc(Cc2nc3ccccc3[nH]2)[nH]1: 2.87
- O=c1cc(N2CCOCC2)nc(Cc2nc3ccccc3n2Cc2ccccc2)[nH]1: 0.084
- Cn1c(Cc2nc(N3CCOCC3)cc(=O)[nH]2)nc2cc(-c3ccccc3)ccc21: 6.75
- O=c1cc(N2CCOCC2)nc(Cc2nc3cccc(-c4ccccc4)c3o2)[nH]1: 1.18
